tested on: B16-F10 murine melanoma; assay: In vitro cytotoxicity assay, B16-F10 murine melanoma; assay type: cell-based; details: inhibit cell growth by 50%; four-fold serial dilution; <500 μg/ml positive; two lines per compound
// boundary case: IC50 B-16-F10 equal to 50 µg/mL maps to Condition not met; strictly smaller maps to Condition met

Consider the molecule COc1cc(C2c3cc4c(cc3C(OC3OC5COC(C)OC5C(O)C3O)C3COC(=O)C23)OCO4)cc(NC(C)=O)c1NC(C)=O (centres unmarked) . Is its IC50 B-16-F10 strictly less than 50 µg/mL?
Condition not met

Please answer likewise for CCOP1(=S)Nc2cc(C3c4cc5c(cc4C(OC4OC6COC(C)OC6C(O)C4O)C4COC(=O)C34)OCO5)cc(OC)c2N1 (centres unmarked)
Condition met

Next molecule up: COc1cc(C2c3cc4c(cc3C(OC3OC5COC(C)OC5C(O)C3O)C3COC(=O)C23)OCO4)cc(N=Cc2ccncc2)c1N=Cc1ccncc1 (centres unmarked)
Condition not met

Could you do the same for COc1cc(C2c3cc4c(cc3C(OC3OC5COC(C)OC5C(O)C3O)C3COC(=O)C23)OCO4)cc2nn[nH]c12 (centres unmarked) , please?
Condition not met

From: patent US4874851A
